# credit: the RNAGym collection of RNA variant scans (doi:10.7554/elife.90254)

B1: LINE1-full (parent)
chain: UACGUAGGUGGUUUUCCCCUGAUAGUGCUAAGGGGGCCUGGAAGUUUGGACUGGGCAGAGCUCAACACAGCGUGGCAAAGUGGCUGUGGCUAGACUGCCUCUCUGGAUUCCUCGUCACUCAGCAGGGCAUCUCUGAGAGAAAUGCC

Variants of: B1
test.details: self-cleavage, relative activity (ratio to wild type); higher = more cleavage; in vitro, sequencing; the parent is a self-cleaving ribozyme
The variants listed here are annotated with their self-cleavage.
Give a plain numeric answer without units written out.

Below: 2 variants and their reported self-cleavage.
# sequence.content, self-cleavage
measured = [
    ("UACGUAGGUGGUUUUCCCCUGAUAGUGCUAAGGGGGCCUGGAAGUUUGGACUGGGCAGAGCUCAACACAGCGUGGCAAAGUGGCUGUGGCUAGACUGCCUCUCUGGAUUCCUCGUCACUCUGCAGGGCACCUCUGAGAGAAAUGCC [A121U U130C]", 1.7),
    ("UACGUAGGUGGUUUUCCCCUGAUAGUGCUGAGGGGGCCUGGAAGUUUGGACUGGGCAGAGCUCAACACAGCGUGGCGAAGUGGCUGUGGCUAGACUGCCUCUCUGGAUUCCUCGUCACUCAGCAGGGCAUCUCUGAGAGAAAUGCC [A30G A77G]", 2.12),
]

Quote self-cleavage reported for UACGUAUGUGGUUUUCCCCUGAUAGUGCUAAGGGGGCCUGGAAGUUUGGACUGGGCAGAGCUCAACACAGCGUGGCAAAGUGGCUGUGGCUAGGCUGCCUCUCUGGAUUCCUCGUCACUCAGCAGGGCAUCUCUGAGAGAAAUGCC [G7U A94G] please.
0.36

Given UACGUAGGUGGUUUUCCCCUGAUAGCGCUAAGGGGGCCUGGAAGUUUGGACUGGGCAGAGCUCAACACAGCGUGGCAAAGUGGCUGCGGCUAGACUGCCUCUCUGGAUUCCUCGUCACUCAGCAGGGCAUCUCUGAGAGAAAUGCC [U26C U87C] , respond with its self-cleavage.
0.26
